- test-target: T1, cloned human somatostatin receptor 5 (human, UniProt P35346 1-364)
- T1 construct: whole, on cells; Tested as cell membrane preparations; also called SSTR-5; SSTR5
- T1 sequence (P35346 whole entry): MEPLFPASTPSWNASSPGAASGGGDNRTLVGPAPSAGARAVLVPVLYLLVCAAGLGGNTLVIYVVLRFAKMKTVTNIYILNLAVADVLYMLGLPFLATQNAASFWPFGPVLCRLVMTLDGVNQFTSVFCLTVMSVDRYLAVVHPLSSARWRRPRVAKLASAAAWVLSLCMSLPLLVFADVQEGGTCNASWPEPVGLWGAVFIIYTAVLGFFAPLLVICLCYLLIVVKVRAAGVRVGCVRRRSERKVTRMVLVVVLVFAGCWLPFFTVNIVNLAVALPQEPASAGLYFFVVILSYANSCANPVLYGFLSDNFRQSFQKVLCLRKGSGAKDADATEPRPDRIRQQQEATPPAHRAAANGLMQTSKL
- assay-notes: inhibition of SRIF binding, cloned human SSTR-5; head says nM, values evidently molar
pIC50: −log10 of the molar value. *1 amine or outer side, *2 acyl side, *3 side chain or, on linkers, in order; H or OH if unused. Bridges are numbered along the chain shown (N, C = ends). Where no end group is shown, it is not given here. [ ]: non-standard residue; d: D form. N(2-aminoethyl)Phe = O=C([C@H](Cc1ccccc1)N(CCN[*:3])[*:1])[*:2]; N(CH2CH2CO)Gly = O=C(CN(CCC(=O)[*:3])[*:1])[*:2]; 2Nal = N[C@@H](Cc1ccc2ccccc2c1)C(=O)O; Gly(S2) = not defined here
parameter-measured: pIC50

binder | value-observed
CFW[dW]KTF[Gly(S2)]-NH2 (disulfide 1-8; reading uncertain, Backbone to side chain cyclized octapeptide) [PTR 3197] | 8.00
XFWWKTFG (GABA at 1 (written X); (D)Trp at 4; Gly(C3) building unit at 8 bridged by an amide to the N terminus (GABA); C-terminal amide, Backbone-to-end cyclized octapeptide) [PTR 3173] | 9.00
[N(2-aminoethyl)Phe]Y[dW]KS[2Nal][N(CH2CH2CO)Gly] (lactam 1-7; not fully specified, Backbone cyclized heptapeptide) [PTR 3201] | 9.00
[dF]CFW[dW]KTF[Gly(S2)]-NH2 (disulfide 2-9; reading uncertain, Backbone to side chain cyclized nonapeptide) [PTR 3207] | 8.00
[N(2-aminoethyl)Phe]F[dW]KT[2Nal][N(CH2CH2CO)Gly] (lactam 1-7; not fully specified, Backbone cyclized heptapeptide) [PTR 3203] | 8.00

Values were extracted from patent US6930088B2.
